FYI, the data here is from ChEMBL document CHEMBL1121465.

- Tested on: Mus musculus
- experimentalProtocol: Lethal dose which causes death in 50% of the mice within 48 hr of ip administration
- Type: functional
Catalogue of LD50 values
propertyLabel: LD50 (mg/kg)

molecule=O=C1NC(=O)C(c2ccccc2)(c2ccccc2)N1 studytarget="Mus musculus" propertylabel=LD50 unitsofmeasure=mg/kg measuredresult=250
molecule=NCc1cc(=O)[nH]o1 studytarget="Mus musculus" propertylabel=LD50 unitsofmeasure=mg/kg measuredresult=17
molecule="CCCC(CCC)C(=O)[O-].[Na+] [VALPROATE SODIUM]" studytarget="Mus musculus" propertylabel=LD50 unitsofmeasure=mg/kg measuredresult=1000
molecule="NC(=O)CCC/N=C(\\c1ccc(Cl)cc1)c1cc(F)ccc1O [PROGABIDE]" studytarget="Mus musculus" propertylabel=LD50 unitsofmeasure=mg/kg measuredresult=900
molecule=O=C([O-])CCC/N=C(\c1ccc(Cl)cc1)c1cc(F)ccc1O.[Na+] studytarget="Mus musculus" propertylabel=LD50 unitsofmeasure=mg/kg measuredresult=420

---

- studyTarget: GABA-A receptor; anion channel
- experimentalProtocol: Displacement of [3H]gamma-amino butyric acid from Gamma-aminobutyric acid (GABA-A) receptor of rat brain
propertyLabel: Ki (µM)

compound=NCc1cc(=O)[nH]o1 unitsofmeasure=µM resultcomparator== measuredresult=0.004
compound=O=C([O-])CCC/N=C(\c1ccc(Cl)cc1)c1cc(F)ccc1O.[Na+] unitsofmeasure=µM resultcomparator== measuredresult=0.59
compound="CCCC(CCC)C(=O)[O-].[Na+] [VALPROATE SODIUM]" unitsofmeasure=µM resultcomparator=> measuredresult=100
compound=O=C1NC(=O)C(c2ccccc2)(c2ccccc2)N1 unitsofmeasure=µM resultcomparator=> measuredresult=100
compound="NC(=O)CCC/N=C(\\c1ccc(Cl)cc1)c1cc(F)ccc1O [PROGABIDE]" unitsofmeasure=µM resultcomparator== measuredresult=14

---

- Organism: Mus musculus
- experimentalProtocol: Effective dose which decreases the 50% of the lethality induced by bicuculline in mice
- Assay type: functional
propertyLabel: ED50 (mg/kg)

compound="NC(=O)CCC/N=C(\\c1ccc(Cl)cc1)c1cc(F)ccc1O [PROGABIDE]" resultcomparator== measuredresult=65
compound=O=C1NC(=O)C(c2ccccc2)(c2ccccc2)N1 resultcomparator== measuredresult=50
compound="CCCC(CCC)C(=O)[O-].[Na+] [VALPROATE SODIUM]" resultcomparator== measuredresult=130
compound=NCc1cc(=O)[nH]o1 resultcomparator=> measuredresult=2
compound=O=C([O-])CCC/N=C(\c1ccc(Cl)cc1)c1cc(F)ccc1O.[Na+] resultcomparator== measuredresult=70
